The origin of these recorded values is ChEMBL document CHEMBL4732047.

# assay procedure: Brain to serum concentration ratio in C57BL/6 mouse at 50 mg/kg, ip measured after 15 mins
# Format: ADME, organism-based
measured metric: Kp at […]
# answer = number (no unit)

Kp at […] for OCCCNc1ccnc2c1nc(-c1ccco1)n2C1CCCC1 ? 5.87

* * *

# assay procedure: Drug uptake in C57BL/6 mouse brain at 50 mg/kg, ip measured up to 60 mins
# Assay type: ADME, organism-based
# condition description: read-out: Drug uptake
measured metric: concentration at 1 h

concentration at 1 h for OCCCNc1ccnc2c1nc(-c1ccco1)n2C1CCCC1 ? ≥ 830 ng/mL

* * *

# assay procedure: Tmax in female Lewis rat at 10 mg/kg, iv
# Assay type: ADME, organism-based
# condition description: in vivo
measured metric: Tmax (h)
Number only, in h; omit the unit.

Tmax for OCCCNc1ccnc2c1nc(-c1ccco1)n2C1CCCC1 ? 0

* * *

# measured target: cGMP-specific 3',5'-cyclic phosphodiesterase (Homo sapiens)
# assay procedure: Inhibition of human recombinant PDE5A using cGMP as substrate incubated for 20 mins measured by Kinase Glo reagent based microplate reader assay
measured metric: pIC50
// pIC50 is dimensionless: -log10 of concentration (M)

// known answers, use as guide
CCCCCn1c(-c2ccco2)nc2c(NCCCOC)ccnc21 | 4.27
OCCCNc1ccnc2c1nc(-c1ccco1)n2C1CCCC1 | 5.57

For the next question, use this compound.
pIC50 for CCCCCn1c(-c2ccco2)nc2c(N(C)CCCO)nccc21 ? 5.54

* * *

# reported IC50; entries follow
# measured target: High affinity 3',5'-cyclic-AMP phosphodiesterase 7A (Homo sapiens, UniProt Q13946)
# Sequence (Q13946 whole entry): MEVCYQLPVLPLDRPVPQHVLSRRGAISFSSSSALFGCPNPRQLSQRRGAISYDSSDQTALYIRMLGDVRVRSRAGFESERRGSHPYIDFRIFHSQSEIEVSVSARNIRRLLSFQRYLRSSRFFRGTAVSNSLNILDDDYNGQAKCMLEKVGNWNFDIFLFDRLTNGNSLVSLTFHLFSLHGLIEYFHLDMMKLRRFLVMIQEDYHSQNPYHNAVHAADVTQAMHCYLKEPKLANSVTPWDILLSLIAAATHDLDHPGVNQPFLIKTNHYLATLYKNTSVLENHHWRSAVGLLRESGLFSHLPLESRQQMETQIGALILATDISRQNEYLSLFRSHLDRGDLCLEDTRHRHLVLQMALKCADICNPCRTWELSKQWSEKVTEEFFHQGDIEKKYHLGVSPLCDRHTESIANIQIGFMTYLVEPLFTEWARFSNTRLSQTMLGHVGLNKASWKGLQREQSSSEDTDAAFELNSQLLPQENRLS
# assay procedure: Inhibition of human recombinant PDE7A using cAMP as substrate incubated for 20 mins measured by Kinase Glo reagent based microplate reader assay

// known answers, use as guide
OCCCNc1nccc2c1nc(-c1ccco1)n2C1CCCC1 | > 200 µM
c1coc(-c2nc3c(NCCc4cccs4)ccnc3n2C2CCCC2)c1 | > 200 µM

IC50 for c1coc(-c2nc3c(NCCc4cccs4)nccc3n2C2CCCC2)c1 ? > 200 µM

Proceed to COCCNc1nccc2c1nc(-c1ccco1)n2C1CCCC1 192 µM

Proceed to CCCCCn1c(-c2ccco2)nc2c(NCCOC)ccnc21 > 200 µM

Proceed to Nc1nc(O)c2nc(Br)n(C3CCCc4cccc(Br)c43)c2n1 (stereo not drawn) 1.31 µM

Proceed to CCCCCn1c(-c2ccccc2)nc2c(N)ccnc21 > 200 µM

Proceed to Nc1ccnc2c1nc(-c1ccccc1)n2CCCO > 200 µM

Proceed to CCCCCn1c(-c2ccco2)nc2c(NCCCO)ccnc21 63.6 µM

Proceed to CCCCCn1c(-c2ccccc2)nc2c(NCCCO)nccc21 > 200 µM

* * *

# reported IC50; entries follow
# measured target: cAMP and cAMP-inhibited cGMP 3',5'-cyclic phosphodiesterase 10A (Homo sapiens)
# assay procedure: Inhibition of human recombinant PDE10A using cAMP as substrate incubated for 20 mins measured by Kinase Glo reagent based microplate reader assay
Number only, in µM; omit the unit.

IC50 for CCCCCn1c(-c2ccco2)nc2c(N(C)CCCO)nccc21 ? 2.95

Proceed to CCCCCn1c(-c2ccco2)nc2c(NCCCOC)ccnc21 9.97

Proceed to OCCCNc1ccnc2c1nc(-c1ccco1)n2C1CCCC1 5.75

* * *

# reported IC50; entries follow
# measured target: 3',5'-cyclic-AMP phosphodiesterase 4B (Homo sapiens)
# Sequence (Q07343 whole entry): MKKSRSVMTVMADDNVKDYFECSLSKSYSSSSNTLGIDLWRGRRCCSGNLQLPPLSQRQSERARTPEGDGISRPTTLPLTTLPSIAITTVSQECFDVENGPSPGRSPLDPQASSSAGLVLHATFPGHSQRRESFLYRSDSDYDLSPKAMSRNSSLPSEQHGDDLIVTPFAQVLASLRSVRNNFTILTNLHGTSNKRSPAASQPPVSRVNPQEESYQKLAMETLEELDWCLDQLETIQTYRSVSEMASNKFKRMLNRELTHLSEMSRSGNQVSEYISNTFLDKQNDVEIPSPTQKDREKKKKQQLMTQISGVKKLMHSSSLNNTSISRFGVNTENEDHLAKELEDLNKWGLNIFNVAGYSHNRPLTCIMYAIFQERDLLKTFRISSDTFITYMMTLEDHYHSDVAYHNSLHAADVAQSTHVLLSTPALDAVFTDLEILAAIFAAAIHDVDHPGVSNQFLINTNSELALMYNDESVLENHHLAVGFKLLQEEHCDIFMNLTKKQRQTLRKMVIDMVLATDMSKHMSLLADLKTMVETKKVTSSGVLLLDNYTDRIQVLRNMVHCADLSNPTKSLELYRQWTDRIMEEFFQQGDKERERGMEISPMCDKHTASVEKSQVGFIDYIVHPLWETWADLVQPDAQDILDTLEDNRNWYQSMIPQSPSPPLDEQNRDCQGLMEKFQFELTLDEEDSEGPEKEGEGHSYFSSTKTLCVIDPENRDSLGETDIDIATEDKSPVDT
# assay procedure: Inhibition of human recombinant PDE4B using cAMP as substrate incubated for 20 mins measured by Kinase Glo reagent based microplate reader assay
Number only, in µM; omit the unit.

// known answers, use as guide
CCCCCn1c(-c2ccccc2)nc2c(NCc3ccccc3)nccc21 | 102
CCCCCn1c(-c2ccco2)nc2c(NCc3ccccc3)ccnc21 | 8.66

For the next question, use this compound.
Field: IC50 (3',5'-cyclic-AMP phosphodiesterase 4B (Homo sapiens)). Entry: COCCCNc1nccc2c1nc(-c1ccco1)n2C1CCCC1 19.9

* * *

# assay procedure: Elimination half life in female Lewis rat at 10 mg/kg, iv
# Assay type: ADME, organism-based
# condition description: in vivo, read-out: beta t1/2
measured metric: half-life (min)
Number only, in min; omit the unit.

half-life for OCCCNc1ccnc2c1nc(-c1ccco1)n2C1CCCC1 ? 19.5

* * *

# assay procedure: Clearance in male Wistar rat at 10 mg/kg, ip
# Assay type: ADME, organism-based
# condition description: in vivo
measured metric: CL/F (mL/min/kg)
Number only, in mL/min/kg; omit the unit.

CL/F for OCCCNc1ccnc2c1nc(-c1ccco1)n2C1CCCC1 ? 140

* * *

# measured target: cGMP-dependent 3',5'-cyclic phosphodiesterase (Homo sapiens, UniProt O00408)
# Sequence (O00408 whole entry): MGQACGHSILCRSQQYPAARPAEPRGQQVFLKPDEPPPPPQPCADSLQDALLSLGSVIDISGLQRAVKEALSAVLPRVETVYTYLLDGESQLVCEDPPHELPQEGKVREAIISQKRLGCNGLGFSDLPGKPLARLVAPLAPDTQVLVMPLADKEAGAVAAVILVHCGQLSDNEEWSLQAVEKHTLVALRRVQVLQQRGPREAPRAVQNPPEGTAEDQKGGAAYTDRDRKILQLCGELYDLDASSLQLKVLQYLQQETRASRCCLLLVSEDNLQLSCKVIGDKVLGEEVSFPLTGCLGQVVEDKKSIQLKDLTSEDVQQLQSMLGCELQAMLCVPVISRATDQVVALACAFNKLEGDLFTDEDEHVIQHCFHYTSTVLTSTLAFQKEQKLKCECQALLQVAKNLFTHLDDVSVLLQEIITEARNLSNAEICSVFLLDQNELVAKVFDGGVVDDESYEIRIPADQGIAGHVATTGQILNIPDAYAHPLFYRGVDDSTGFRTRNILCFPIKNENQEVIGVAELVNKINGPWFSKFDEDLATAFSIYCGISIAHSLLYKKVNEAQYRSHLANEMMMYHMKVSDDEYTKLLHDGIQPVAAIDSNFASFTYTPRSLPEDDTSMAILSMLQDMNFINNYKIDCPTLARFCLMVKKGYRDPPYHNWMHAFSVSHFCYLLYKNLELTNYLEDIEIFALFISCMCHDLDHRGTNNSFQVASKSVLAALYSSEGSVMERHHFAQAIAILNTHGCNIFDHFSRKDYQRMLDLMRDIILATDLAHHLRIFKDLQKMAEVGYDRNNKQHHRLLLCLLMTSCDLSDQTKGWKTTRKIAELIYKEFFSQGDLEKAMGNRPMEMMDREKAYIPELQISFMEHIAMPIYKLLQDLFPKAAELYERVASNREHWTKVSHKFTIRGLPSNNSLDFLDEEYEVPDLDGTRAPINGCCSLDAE
# assay procedure: Inhibition of human recombinant PDE2A using cGMP as substrate incubated for 20 mins measured by Kinase Glo reagent based microplate reader assay
# reported IC50; entries follow
Number only, in µM; omit the unit.

// known answers, use as guide
CCCCCn1c(-c2ccco2)nc2c(N(C)CCCO)nccc21 | 21.8
OCCCNc1ccnc2c1nc(-c1ccco1)n2C1CCCC1 | 40.7
CCCCCC[C@H]([C@H](C)O)n1cnc2c(N)ncnc21 [(+)-EHNA] | 2.62

For the next question, use this compound.
IC50 for CCCCCn1c(-c2ccco2)nc2c(NCCCOC)ccnc21 ? 6.85

* * *

# measured target: 3',5'-cyclic-AMP phosphodiesterase 4D (Homo sapiens, UniProt Q08499)
# Sequence (Q08499 whole entry): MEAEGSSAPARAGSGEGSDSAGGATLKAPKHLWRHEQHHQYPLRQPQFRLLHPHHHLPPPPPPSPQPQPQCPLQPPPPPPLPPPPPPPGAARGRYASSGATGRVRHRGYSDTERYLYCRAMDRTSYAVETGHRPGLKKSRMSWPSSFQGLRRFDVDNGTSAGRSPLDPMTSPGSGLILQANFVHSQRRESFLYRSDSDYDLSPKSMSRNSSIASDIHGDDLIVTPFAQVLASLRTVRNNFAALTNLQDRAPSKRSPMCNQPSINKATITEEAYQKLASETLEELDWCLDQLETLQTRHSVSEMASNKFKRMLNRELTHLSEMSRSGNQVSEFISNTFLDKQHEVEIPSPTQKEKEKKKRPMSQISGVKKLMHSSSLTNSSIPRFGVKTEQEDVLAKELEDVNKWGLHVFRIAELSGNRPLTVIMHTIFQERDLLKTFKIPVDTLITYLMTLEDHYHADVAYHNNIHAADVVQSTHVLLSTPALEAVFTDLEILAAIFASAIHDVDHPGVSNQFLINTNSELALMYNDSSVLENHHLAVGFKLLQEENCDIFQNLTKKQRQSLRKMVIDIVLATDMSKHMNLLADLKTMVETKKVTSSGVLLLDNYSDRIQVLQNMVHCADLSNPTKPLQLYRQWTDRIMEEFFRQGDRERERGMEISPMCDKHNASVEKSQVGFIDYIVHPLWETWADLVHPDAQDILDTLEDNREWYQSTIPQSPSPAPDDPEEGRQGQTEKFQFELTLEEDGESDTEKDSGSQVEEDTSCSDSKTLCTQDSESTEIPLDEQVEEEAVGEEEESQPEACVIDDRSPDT
# assay procedure: Inhibition of human recombinant PDE4D using cAMP as substrate incubated for 20 mins measured by Kinase Glo reagent based microplate reader assay
# reported pIC50; entries follow
// pIC50 is dimensionless: -log10 of concentration (M)

// known answers, use as guide
CCCCCn1c(-c2ccco2)nc2c(NCCCOC)ccnc21 | 4.57
CCCCCn1c(-c2ccco2)nc2c(N(C)CCCO)nccc21 | 4.59

For the next question, use this molecule.
pIC50 for OCCCNc1ccnc2c1nc(-c1ccco1)n2C1CCCC1 ? 4.45

* * *

# assay procedure: Brain to serum concentration ratio in C57BL/6 mouse at 50 mg/kg, ip measured after 5 mins
# Type: ADME, organism-based
measured metric: Kp at 5 min
# answer = number (no unit)

Kp at 5 min for OCCCNc1ccnc2c1nc(-c1ccco1)n2C1CCCC1 ? 2.96

* * *

# measured target: 3',5'-cyclic-AMP phosphodiesterase 4B (Homo sapiens)
# assay procedure: Inhibition of human recombinant PDE4B using cAMP as substrate incubated for 20 mins measured by Kinase Glo reagent based microplate reader assay
measured metric: IC50 (µM)
Number only, in µM; omit the unit.

CCCCCn1c(-c2ccccc2)nc2c(NCCCO)ccnc21 | 23.2
CNc1nc(C(F)(F)F)nc2c1ncn2Cc1ccccc1F | 0.042
c1coc(-c2nc3c(NCCc4cccs4)nccc3n2C2CCCC2)c1 | 2.8
CCCCCn1c(-c2ccccc2)nc2c(NCCc3cccs3)nccc21 | 15.6

IC50 for CCCCCn1c(-c2ccccc2)nc2c(NCc3ccccc3)ccnc21 ? 16.9

Proceed to CCCCCn1c(-c2ccco2)nc2c(NCCOC)ccnc21 9.77

* * *

# measured target: Dual specificity calcium/calmodulin-dependent 3',5'-cyclic nucleotide phosphodiesterase 1B (Homo sapiens, UniProt Q01064)
# Sequence (Q01064 whole entry): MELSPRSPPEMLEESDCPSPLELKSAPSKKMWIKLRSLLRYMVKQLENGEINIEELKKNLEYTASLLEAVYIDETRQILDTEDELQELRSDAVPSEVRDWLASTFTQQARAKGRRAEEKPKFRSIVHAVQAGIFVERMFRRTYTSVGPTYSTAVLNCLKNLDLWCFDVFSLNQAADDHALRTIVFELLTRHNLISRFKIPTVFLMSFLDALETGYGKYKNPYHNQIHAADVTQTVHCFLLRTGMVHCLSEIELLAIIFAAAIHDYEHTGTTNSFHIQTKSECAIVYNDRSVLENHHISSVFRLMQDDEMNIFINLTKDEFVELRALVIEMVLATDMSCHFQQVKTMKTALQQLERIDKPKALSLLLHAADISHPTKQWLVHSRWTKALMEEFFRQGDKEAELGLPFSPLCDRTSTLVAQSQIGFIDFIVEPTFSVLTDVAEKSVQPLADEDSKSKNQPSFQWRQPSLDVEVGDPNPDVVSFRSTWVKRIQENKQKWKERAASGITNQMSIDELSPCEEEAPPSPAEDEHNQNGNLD
# assay procedure: Inhibition of human recombinant PDE1B using cAMP as substrate incubated for 20 mins measured by Kinase Glo reagent based microplate reader assay
# reported IC50; entries follow
Number only, in µM; omit the unit.

// known answers, use as guide
OCCCNc1ccnc2c1nc(-c1ccco1)n2C1CCCC1 | 8.45
CCCCCn1c(-c2ccco2)nc2c(NCCCOC)ccnc21 | 0.36
CCCCCn1c(-c2ccco2)nc2c(N(C)CCCO)nccc21 | 2.3

For the next question, use this compound.
IC50 for CCOC(=O)C1=C[C@]2(CC)CCCN3CCc4c(n1c1ccccc41)[C@@H]32 [VINPOCETINE] ? 7.99

* * *

# measured target: UniProtKB Q14432
# Sequence (Q14432 whole entry): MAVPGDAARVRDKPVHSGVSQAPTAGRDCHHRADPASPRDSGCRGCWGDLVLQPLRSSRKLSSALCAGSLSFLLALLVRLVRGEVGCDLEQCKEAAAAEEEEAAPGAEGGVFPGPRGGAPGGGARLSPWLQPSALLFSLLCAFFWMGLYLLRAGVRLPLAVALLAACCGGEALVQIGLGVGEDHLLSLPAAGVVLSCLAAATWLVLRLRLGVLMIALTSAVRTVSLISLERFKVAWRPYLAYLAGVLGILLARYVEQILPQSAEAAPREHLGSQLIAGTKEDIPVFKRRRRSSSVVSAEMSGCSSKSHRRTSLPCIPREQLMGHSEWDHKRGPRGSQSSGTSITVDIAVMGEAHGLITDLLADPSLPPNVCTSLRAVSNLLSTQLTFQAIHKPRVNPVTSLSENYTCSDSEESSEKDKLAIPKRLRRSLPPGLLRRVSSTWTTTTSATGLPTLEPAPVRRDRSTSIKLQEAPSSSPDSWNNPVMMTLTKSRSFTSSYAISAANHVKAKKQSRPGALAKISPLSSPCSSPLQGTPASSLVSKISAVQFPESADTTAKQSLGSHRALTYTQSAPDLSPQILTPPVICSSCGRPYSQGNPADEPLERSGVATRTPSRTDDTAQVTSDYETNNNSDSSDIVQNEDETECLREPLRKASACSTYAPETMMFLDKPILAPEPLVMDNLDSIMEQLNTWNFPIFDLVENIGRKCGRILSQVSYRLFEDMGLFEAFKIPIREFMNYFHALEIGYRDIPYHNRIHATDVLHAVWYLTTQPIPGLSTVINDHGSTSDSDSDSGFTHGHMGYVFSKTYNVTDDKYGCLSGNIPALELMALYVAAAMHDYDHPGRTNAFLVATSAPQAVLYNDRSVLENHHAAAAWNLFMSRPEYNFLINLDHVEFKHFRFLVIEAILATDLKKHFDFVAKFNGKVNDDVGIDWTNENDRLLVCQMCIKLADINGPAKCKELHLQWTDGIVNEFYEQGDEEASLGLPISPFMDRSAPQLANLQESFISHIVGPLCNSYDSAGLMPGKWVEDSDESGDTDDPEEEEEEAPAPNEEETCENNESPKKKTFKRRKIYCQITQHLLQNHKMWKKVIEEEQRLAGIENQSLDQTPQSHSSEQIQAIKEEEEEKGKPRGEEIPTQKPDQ
# assay procedure: Inhibition of human recombinant PDE3A using cAMP as substrate incubated for 20 mins measured by Kinase Glo reagent based microplate reader assay
measured metric: pIC50
// pIC50 is dimensionless: -log10 of concentration (M)

// known answers, use as guide
OCCCNc1ccnc2c1nc(-c1ccco1)n2C1CCCC1 | 4.33
CCCCCn1c(-c2ccco2)nc2c(NCCCOC)ccnc21 | 4.39

For the next question, use this compound.
pIC50 for CCCCCn1c(-c2ccco2)nc2c(N(C)CCCO)nccc21 ? 5.00

* * *

# assay procedure: Cmax in female Lewis rat at 10 mg/kg, iv
# Assay type: ADME, organism-based
# Set-up: route intravenous, dose 10 mg/kg
# condition description: in vivo
measured metric: Cmax
Hey, just the number and the unit after it is fine.

Cmax for OCCCNc1ccnc2c1nc(-c1ccco1)n2C1CCCC1 ? 10600 ng/mL

* * *

# assay procedure: Clearance in female Lewis rat at 10 mg/kg, iv
# Assay type: ADME, organism-based
# condition description: in vivo
measured metric: clearance (mL/min/kg)
Number only, in mL/min/kg; omit the unit.

clearance for OCCCNc1ccnc2c1nc(-c1ccco1)n2C1CCCC1 ? 70
